Entry source: paper PMC4186383

Molecular target: Nox2 (NADPH oxidase 2, flavocytochrome b558) (Sus scrofa)
Construct: gene CYBB; detergent-solubilized resting neutrophil membranes (1 pmol Nox2/flavocytochrome b558) plus cytosol; with cytosolic components of the Nox2 system
Experiment: cell-free reconstitution assay, SOD-sensitive cytochrome c reduction
Type: biochemical
Assay Endpoint: IC50 (nM)
Report the value in nM with no unit label.

Qu. Identify IC50 associated with the compound `CC(C)=CC[C@H](O)C1=CC(=O)c2c(O)ccc(O)c2C1=O`
Ans. 2200
